test system: Onchocerca lienalis; assay: WHO-TDR: Onchocerciasis; type: functional; parameters: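 at 12.5 µM on microfilariae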
QUANTITY MEASURED: % Inhibition (%)

> print(dat)
                               input.smiles  observed.measurement
1  Cc1ccc2sc(N(Cc3cccnc3)C(=O)CSc3ccccc3)nc2c1C                     0
2  Cc1ccc(C)c(-c2csc(NC(=O)CCCS(=O)(=O)c3ccc(F)cc3)n2)c1                 12.34
3  O=C(CSc1nnc(NC(=O)COc2ccc(Cl)cc2)s1)NCc1ccc2c(c1)OCO2                  13.3
4  CCN(C1CCCCC1)S(=O)(=O)c1ccc(C(=O)Nc2nnc(-c3ccc(F)cc3)o2)cc1                  46.7
5   CN(C(=O)CN1CC(=O)Oc2ccccc21)c1ccc(O)cc1                    20
6  CCN(CC)c1cc(C)nc(Nc2ccc(NS(=O)(=O)c3ccc(C)cc3C)cc2)n1                    -1
7     CC(C)(C)c1ccc(C(=O)Nc2sccc2C(N)=O)cc1                  13.3
8  CCC(=O)c1c(NC(=O)c2ccc(C)cc2)sc2c1CCN(CC)C2                     0
